test: Volume of distribution in rat at 10 mg/kg administered as suspension; assay type: ADME, organism-based; design: dose 10 mg/kg; details: in vivo
value-type: Vd (L/kg)
// return numeric value only (unit: L/kg, not printed)

Quick note, Vd for "C[C@@H](N[C@@H]1CCCc2c1[nH]c1ccc(Br)cc21)c1ccccc1" landed at 1.9

* * *

assay: Cytotoxicity against human HFF cells; type: cell-based; details: HFF cells
Mark each entry Fulfilled if its CC50 sits below 40 µM, and Not fulfilled for all others.

Problem: Lab note: confirm whether the reported CC50 for this compound is below 40 µM, equality not counting. compound: Brc1ccc2[nH]c3c(c2c1)CCCC3NCc1ccccc1 (racemic)
Result: Fulfilled

Problem: Lab note: confirm whether the reported CC50 for this compound is below 40 µM, equality not counting. compound: OCCNC1CCCc2c1[nH]c1ccc(Br)cc21 (racemic)
Result: Fulfilled

Problem: Lab note: confirm whether the reported CC50 for this compound is below 40 µM, equality not counting. compound: COC(=O)c1ccc2[nH]c3c(c2c1)CCCC3NCc1ccccc1 (racemic)
Result: Not fulfilled

Problem: Lab note: confirm whether the reported CC50 for this compound is below 40 µM, equality not counting. compound: Fc1ccc2[nH]c3c(c2c1)CCCC3NCc1ccccc1 (racemic)
Result: Fulfilled

Problem: Lab note: confirm whether the reported CC50 for this compound is below 40 µM, equality not counting. compound: "Cc1ccc2[nH]c3c(c2c1)CCC[C@H]3N[C@@H](C)c1ccccc1"
Result: Fulfilled

Problem: Lab note: confirm whether the reported CC50 for this compound is below 40 µM, equality not counting. compound: Clc1ccc2[nH]c3c(c2c1)CCCC3NCc1ccccc1 (racemic)
Result: Fulfilled

Problem: Lab note: confirm whether the reported CC50 for this compound is below 40 µM, equality not counting. compound: Cc1ccc2[nH]c3c(c2c1)CCCC3NCCc1ccccc1 (racemic)
Result: Fulfilled

Problem: Lab note: confirm whether the reported CC50 for this compound is below 40 µM, equality not counting. compound: Brc1ccc2c3c([nH]c2c1)C(NCc1ccccc1)CCC3 (racemic)
Result: Not fulfilled

Problem: Lab note: confirm whether the reported CC50 for this compound is below 40 µM, equality not counting. compound: Brc1ccc2[nH]c3c(c2c1)CCCC3NC1Cc2ccccc2C1 (racemic)
Result: Fulfilled

Problem: Lab note: confirm whether the reported CC50 for this compound is below 40 µM, equality not counting. compound: O=[N+]([O-])c1ccc2[nH]c3c(c2c1)CCCC3NCc1ccccc1 (racemic)
Result: Fulfilled
